# target or test system: α4β1 integrin (Jurkat T-cell adhesion to IL-1 stimulated endothelial cell monolayers) (Homo sapiens, UniProt P05556+P13612)
# Construct: a T-cell line, Jurkat, known to express the α4β1 integrin
# assay remarks: Jurkat-endothelial cell adhesion assay (Jurkat EC)
# experimental context: Jurkat cells on IL-1 stimulated human umbilical vein endothelial cells; read-out: JK/EC (Jurkat EC Assay IC50 value range)
endpoint: IC50

1. CC(=O)N1CSC[C@H]1C(=O)N[C@@H](Cc1ccc(NC(=O)c2c(Cl)cccc2Cl)cc1)C(=O)O [Example 70] = 0.25 to 1 µM
2. O=C(O)CCC1(CCC(=O)N[C@@H](Cc2ccc(OCc3c(Cl)cccc3Cl)cc2)C(=O)O)CCC(=O)N1 (stereo partly shown) [Example 113] = ≥ 1 µM
3. O=C(O)/C=C\C(=O)N1CCCC(C(=O)N[C@@H](Cc2ccc(NC(=O)c3c(Cl)cccc3Cl)cc2)C(=O)O)C1 (stereo partly shown) [Example 197] = ≥ 1 µM
4. O=C(Nc1ccc(C[C@H](NC(=O)[C@H]2CSCN2C(=O)c2cccnc2)C(=O)O)cc1)c1c(Cl)cccc1Cl [Example 265] = ≤ 0.25 µM
5. O=C(O)/C=C/C(=O)N1CCC[C@@H]1C(=O)N[C@@H](Cc1ccc(NC(=O)c2c(Cl)cccc2Cl)cc1)C(=O)O [Example 255] = ≥ 1 µM
6. O=C(O)/C=C\C(=O)N1CCCCC1C(=O)N[C@@H](Cc1ccc(NC(=O)c2c(Cl)cccc2Cl)cc1)C(=O)O (stereo partly shown) [Example 170] = ≥ 1 µM
7. O=C(O)c1ccc2cc(C(=O)N3CCCC[C@H]3C(=O)N[C@@H](Cc3ccc(NC(=O)c4c(Cl)cccc4Cl)cc3)C(=O)O)ccc2c1 [Example 183] = ≥ 1 µM

###

# target or test system: α4β1 integrin (Jurkat cell adhesion to immobilized CS-1 derived peptide CLHPGEILDVPST) (Homo sapiens, UniProt P05556+P13612)
# Construct: 100 μl of Jurkat cells (2.5×10^6 cells/ml) in DMEM plus BSA
# Sequence (P13612 34-1032): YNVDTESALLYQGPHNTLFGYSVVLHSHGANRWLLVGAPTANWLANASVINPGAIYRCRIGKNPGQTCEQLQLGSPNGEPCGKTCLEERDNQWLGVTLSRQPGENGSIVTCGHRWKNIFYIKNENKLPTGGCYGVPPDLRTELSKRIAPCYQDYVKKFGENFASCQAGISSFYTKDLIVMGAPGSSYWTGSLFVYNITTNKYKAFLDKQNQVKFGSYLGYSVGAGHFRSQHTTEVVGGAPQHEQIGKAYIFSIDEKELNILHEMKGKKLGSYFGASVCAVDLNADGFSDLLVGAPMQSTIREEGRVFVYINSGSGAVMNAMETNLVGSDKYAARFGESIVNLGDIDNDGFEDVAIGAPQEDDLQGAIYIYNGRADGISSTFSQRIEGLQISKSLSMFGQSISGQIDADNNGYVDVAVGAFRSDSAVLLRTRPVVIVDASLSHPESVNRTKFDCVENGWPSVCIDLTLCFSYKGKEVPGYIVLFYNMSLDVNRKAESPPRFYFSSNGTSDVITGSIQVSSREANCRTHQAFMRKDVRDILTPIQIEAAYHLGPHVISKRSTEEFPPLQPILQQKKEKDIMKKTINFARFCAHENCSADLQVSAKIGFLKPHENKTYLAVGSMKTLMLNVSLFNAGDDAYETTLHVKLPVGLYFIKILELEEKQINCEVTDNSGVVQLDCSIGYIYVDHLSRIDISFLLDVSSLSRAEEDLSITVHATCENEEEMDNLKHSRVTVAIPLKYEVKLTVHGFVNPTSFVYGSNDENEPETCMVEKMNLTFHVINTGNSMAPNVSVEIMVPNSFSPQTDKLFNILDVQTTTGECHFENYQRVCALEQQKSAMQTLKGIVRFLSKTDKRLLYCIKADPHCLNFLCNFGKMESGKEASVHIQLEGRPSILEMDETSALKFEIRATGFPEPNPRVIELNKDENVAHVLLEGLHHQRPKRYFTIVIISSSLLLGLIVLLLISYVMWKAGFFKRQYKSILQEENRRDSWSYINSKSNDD
# Sequence (P05556 21-798): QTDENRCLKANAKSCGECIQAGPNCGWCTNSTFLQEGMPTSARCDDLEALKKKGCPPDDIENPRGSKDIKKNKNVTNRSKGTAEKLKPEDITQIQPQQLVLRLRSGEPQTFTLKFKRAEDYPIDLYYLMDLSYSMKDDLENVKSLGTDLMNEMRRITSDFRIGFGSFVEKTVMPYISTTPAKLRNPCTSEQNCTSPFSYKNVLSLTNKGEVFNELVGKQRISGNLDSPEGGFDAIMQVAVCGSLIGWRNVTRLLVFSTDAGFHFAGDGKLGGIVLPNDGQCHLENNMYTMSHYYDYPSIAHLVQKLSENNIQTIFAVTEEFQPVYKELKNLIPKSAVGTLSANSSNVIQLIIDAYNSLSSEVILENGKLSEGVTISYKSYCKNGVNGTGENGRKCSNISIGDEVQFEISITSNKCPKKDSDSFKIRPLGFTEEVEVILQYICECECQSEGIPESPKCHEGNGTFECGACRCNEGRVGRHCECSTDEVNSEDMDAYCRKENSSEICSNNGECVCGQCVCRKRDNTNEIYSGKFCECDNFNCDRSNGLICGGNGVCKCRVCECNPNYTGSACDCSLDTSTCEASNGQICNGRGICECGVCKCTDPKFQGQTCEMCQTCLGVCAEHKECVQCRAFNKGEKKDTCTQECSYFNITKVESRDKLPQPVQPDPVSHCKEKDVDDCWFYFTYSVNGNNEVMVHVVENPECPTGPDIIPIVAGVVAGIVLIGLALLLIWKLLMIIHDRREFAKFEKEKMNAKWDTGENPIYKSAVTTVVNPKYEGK
# assay remarks: Jurkat-CS-1 assay
# experimental context: Jurkat cells on CS-1 peptide coated plates; read-out: JK/CS-1 (Jurkat CS-1 Assay IC50 value range)
endpoint: IC50

1. CCOC(=O)N1CSC[C@H]1C(=O)N[C@@H](Cc1ccc(NC(=O)c2c(Cl)cccc2Cl)cc1)C(=O)O (relative stereo) = 0.05 to 0.75 µM
2. N#CCCC(=O)N1CCSC[C@H]1C(=O)N[C@@H](Cc1ccc(NC(=O)c2c(Cl)cccc2Cl)cc1)C(=O)O = 0.05 to 0.75 µM
3. COC(=O)[C@H](Cc1ccc(OCc2c(Cl)cccc2Cl)cc1)NC(=O)[C@H]1CSCN1C(=O)OC1CCOC1 (relative stereo) = 0.05 to 0.75 µM
4. COCCC(=O)N1CSC[C@@H]1C(=O)N[C@@H](Cc1ccc(NC(=O)c2c(Cl)cccc2Cl)cc1)C(=O)O = ≤ 0.05 µM
5. CC(=O)N1CSC[C@H]1C(=O)N[C@@H](Cc1ccc(NC(=O)c2c(Cl)cccc2Cl)cc1)C(=O)O = ≤ 0.05 µM
6. CC(C)(C)OC(=O)N1CSC[C@@H]1C(=O)N[C@@H](Cc1ccc(OCc2c(Cl)cccc2Cl)cc1)C(=O)O (relative stereo) = 0.05 to 0.75 µM
7. O=C(O)CCC(=O)N1CSC[C@@H]1C(=O)N[C@@H](Cc1ccc(NC(=O)c2c(Cl)cccc2Cl)cc1)C(=O)O (relative stereo) = ≤ 0.05 µM
8. O=C(Nc1ccc(C[C@H](NC(=O)[C@@H]2CSCN2C(=O)C2NC(C(=O)O)CS2)C(=O)O)cc1)c1c(Cl)cccc1Cl (stereo partly shown) = 0.05 to 0.75 µM
9. CC(C)(C)NC(=O)N1CSC[C@@H]1C(=O)N[C@@H](Cc1ccc(NC(=O)c2c(Cl)cccc2Cl)cc1)C(=O)O = 0.05 to 0.75 µM
10. COC(=O)[C@H](Cc1ccc(NC(=O)c2c(Cl)cccc2Cl)cc1)NC(=O)[C@H]1CSCN1C(=O)OCC1c2ccccc2-c2ccccc21 (relative stereo) = ≥ 0.75 µM
11. O=C(O)CCC1(CCC(=O)N[C@@H](Cc2ccc(OCc3c(Cl)cccc3Cl)cc2)C(=O)O)CCC(=O)N1 (stereo partly shown) = 0.05 to 0.75 µM
12. O=C(Nc1ccc(C[C@H](NC(=O)C2CSC3COC(=O)N32)C(=O)O)cc1)c1c(Cl)cccc1Cl (single isomer, unassigned) [Example 282] = ≤ 0.05 µM
13. O=C(O)c1cccc(C(=O)N2CSC[C@@H]2C(=O)N[C@@H](Cc2ccc(NC(=O)c3c(Cl)cccc3Cl)cc2)C(=O)O)n1 = ≤ 0.05 µM

###

# target or test system: α4β1 integrin (Jurkat cell adhesion to immobilized CS-1 derived peptide CLHPGEILDVPST) (Homo sapiens, UniProt P05556+P13612)
# Construct: 100 μl of Jurkat cells (2.5×10^6 cells/ml) in DMEM plus BSA
# assay remarks: Jurkat-CS-1 assay
# experimental context: Jurkat cells on CS-1 peptide coated plates; read-out: JK/CS-1 (Jurkat CS-1 Assay IC50 value range)
pIC50: −log10 of the molar value.
Below: a set of entries, each annotated with reported pIC50.
endpoint: pIC50

1) O=C(O)CCC(=O)N1CCC[C@H]1C(=O)N[C@@H](Cc1ccc(NC(=O)c2c(Cl)cccc2Cl)cc1)C(=O)O = 6.12 to 7.30
2) O=C(Nc1ccc(C[C@H](NC(=O)[C@H]2CCCN2C(=O)c2cccnc2)C(=O)O)cc1)c1c(Cl)cccc1Cl = 6.12 to 7.30
3) CCOC(=O)N1CSC(C)(C)[C@@H]1C(=O)N[C@@H](Cc1ccc(NC(=O)c2c(Cl)cccc2Cl)cc1)C(=O)O (relative stereo) = ≥ 7.30
4) CC(C)(C)OC(=O)N1CSC(C)(C)[C@@H]1C(=O)N[C@@H](Cc1ccc(NC(=O)c2c(Cl)cccc2Cl)cc1)C(=O)O (relative stereo) = 6.12 to 7.30
5) COC(=O)[C@H](Cc1ccc(NC(=O)c2c(Cl)cccc2Cl)cc1)NC(=O)[C@H]1CSCN1C(=O)OC(C)(C)C (relative stereo) = 6.12 to 7.30
6) CCN(CC)C(=O)N1CSC[C@@H]1C(=O)N[C@@H](Cc1ccc(NC(=O)c2c(Cl)cccc2Cl)cc1)C(=O)OC = 6.12 to 7.30

###

# target or test system: α4β1 integrin (Jurkat T-cell adhesion to IL-1 stimulated endothelial cell monolayers) (Homo sapiens, UniProt P05556+P13612)
# Construct: a T-cell line, Jurkat, known to express the α4β1 integrin
# assay remarks: Jurkat-endothelial cell adhesion assay (Jurkat EC)
# experimental context: Jurkat cells on IL-1 stimulated human umbilical vein endothelial cells; read-out: JK/EC (Jurkat EC Assay IC50 value range)
Counter-ions that a name gives are not always drawn.
endpoint: IC50

1. O=C(Nc1ccc(C[C@H](NC(=O)[C@H]2CSCN2S(=O)(=O)c2ccccc2)C(=O)O)cc1)c1c(Cl)cccc1Cl [Example 47] = ≤ 0.25 µM
2. COC(=O)[C@H](Cc1ccc(NC(=O)c2c(Cl)cccc2Cl)cc1)NC(=O)[C@H]1COCN1C(=O)OCc1ccccc1 [Example 126] = ≥ 1 µM
3. COCCC(=O)N1CSC[C@@H]1C(=O)N[C@@H](Cc1ccc(NC(=O)c2c(Cl)cccc2Cl)cc1)C(=O)O [Example 262] = ≤ 0.25 µM
4. COC(=O)[C@H](Cc1ccc(NC(=O)c2c(Cl)cccc2Cl)cc1)NC(=O)[C@@H]1CSCCN1 [Example 97] = ≥ 1 µM
5. CC(C)(C)OC(=O)N1CSC[C@@H]1C(=O)N[C@@H](Cc1ccc(N(C(=O)c2c(Cl)cccc2Cl)C(=O)c2c(Cl)cccc2Cl)nc1)C(=O)O [Example 123] = ≥ 1 µM
6. CCN(CC)C(=O)N1CSC[C@@H]1C(=O)N[C@@H](Cc1ccc(NC(=O)c2c(Cl)cccc2Cl)cc1)C(=O)O [Example 53] = ≤ 0.25 µM
7. COC(=O)[C@H](Cc1ccc(NC(=O)c2c(Cl)cccc2Cl)cc1)NC(=O)[C@H]1CSCN1S(=O)(=O)c1ccc(C(F)(F)F)cn1 [Example 44] = ≥ 1 µM
8. C[C@@H](c1ccccc1)N1[C@H](C(=O)O)C[C@H]1C(=O)N[C@@H](Cc1ccc(NC(=O)c2c(Cl)cccc2Cl)cc1)C(=O)O [Example 129, Dilithium Salt] = 0.25 to 1 µM
9. COC(=O)CCC1(CCC(=O)N[C@@H](Cc2ccc(OCc3c(Cl)cccc3Cl)cc2)C(=O)OC)CCC(=O)N1 (stereo partly shown) [Example 112] = ≥ 1 µM
10. CCOC(=O)N1[C@@H](C(=O)N[C@@H](Cc2ccc(OCc3c(Cl)cccc3Cl)cc2)C(=O)O)CSC12CCN(C)CC2 (relative stereo) [Example 155] = ≥ 1 µM
11. O=C(Nc1ccc(C[C@H](NC(=O)[C@@H]2CSCCN2)C(=O)O)cc1)c1c(Cl)cccc1Cl [Example 101, Monohydrochloride] = 0.25 to 1 µM
12. CC(C)(CC(=O)O)CC(=O)N1CCC[C@H]1C(=O)N[C@@H](Cc1ccc(NC(=O)c2c(Cl)cccc2Cl)cc1)C(=O)O [Example 226] = ≥ 1 µM
13. O=C(O)CC1(CC(=O)N2CCC[C@H]2C(=O)N[C@@H](Cc2ccc(NC(=O)c3c(Cl)cccc3Cl)cc2)C(=O)O)CCCC1 [Example 225] = ≥ 1 µM
